# Test system: ISMR1: isometamidium-resistant T. brucei cell line
# Procedure text: microbe, parasite or virus in culture
# Assay type: cell-based, Trypanosoma brucei brucei
# Details: Trypanosoma brucei, source data; read-out: ISMR1 EC50, AVG
Could you please report measured pEC50 for the items listed next?
Answers are plain numbers, as −log10 of the molar value.

Example compounds with recorded pEC50:
compound="N=C(N)c1ccc(OCCCCCOc2ccc(C(=N)N)cc2)cc1 [Pentamidine, reference compound]" study_target="ISMR1: isometamidium-resistant T. brucei cell line" readout_value=6.86
compound=Nc1ncnc2c1c(Br)cn2[C@@H]1O[C@H](CO)[C@@H](O)[C@H]1O study_target="ISMR1: isometamidium-resistant T. brucei cell line" readout_value=5.82
compound="Nc1ncnc2c1ccn2[C@@H]1O[C@H](CO)[C@@H](O)[C@H]1O [Compound 6, Tubercidin, reference compound]" study_target="ISMR1: isometamidium-resistant T. brucei cell line" readout_value=5.78

Q. Look at this compound and give its reported pEC50. N=C(N)c1ccc(/N=N/Nc2ccc(C(=N)N)cc2)cc1 [Diminazene, reference compound]
A. 5.53

From: paper PMC6895180
